Taken from PubChem BioAssay (NCI).

# Tested on: UACC-62 melanoma
# method.summary: NCI tumour cell line growth inhibition, 48 h

{"columns": ["compound", "study.system", "TGI"],
 "data": [
  ["COC(=O)C(=O)C(C(=O)C(=O)Nc1cccc([N+](=O)[O-])c1)c1nc2ccc(Cl)cc2[nH]c1=O (stereo not given)", "UACC-62 melanoma", "> 100 µM"],
  ["CC(C)(O)C1CC[C@]2(C)[C@H]3CC[C@@H]4[C@@]5(C)CCCC(C)(C)[C@@H]5CC[C@@]4(C)[C@]3(C)CC[C@@H]12 (stereo not given in full)", "UACC-62 melanoma", "> 100 µM"],
  ["CC[C@@]1(OC(=O)CN)C(=O)OCc2c1cc1n(c2=O)Cc2c-1nc1cc3c(cc1c2CCl)OCO3", "UACC-62 melanoma", "2.28 µM"],
  ["O=c1cccccc1NCCCCCCCNc1cccccc1=O", "UACC-62 melanoma", "84.5 µM"],
  ["Cc1ccc(Sc2ccccc2[N+](=O)[O-])cc1", "UACC-62 melanoma", "> 100 µM"]
]}
